# System: KM12 colon
# protocol_summary: NCI-60 one-dose screen, 48 h
# applied_conditions: 10 µM unless noted
# Procedure: Growth inhibition of the KM12 human tumor cell line is measured as a screen for anti-cancer activity. Cells are grown in 96 well plates and exposed to the test compound for 48 hours. Compounds are tested at a single concentration, which is 10^-5 M for most compounds. The reported endpoint is percent growth (GI% or GIPRCNT), where numbers from 0 - 100% represent growth inhibition, and numbers from -100% - 0 represent cell death. For example, a value of 40 represents 60% growth inhibition. […]
The panel holds about 83,000 compounds, 20% with a hit somewhere; the sample as a whole holds those more often. The source made the active and inactive calls. The calls were made as follows: active = growth percent below 10; inactive = the rest.
Outcomes: T (active), F (inactive)

>  <compound>
CCN1C(=O)N(CC)C2C1NC(=S)N2/N=C/c1ccc(OC)cc1 (stereo unspecified)

>  <assigned_category>
F

$$$$
>  <compound>
Cc1nnc(-c2ccc3c(c2)nc(/C=C/c2ccccc2)n3C2CCCCC2)o1

>  <assigned_category>
F

$$$$
>  <compound>
O=C(CSc1nc(-c2ccccc2)cc(=O)[nH]1)Nc1nc(-c2ccccc2)cs1

>  <assigned_category>
F

$$$$
>  <compound>
CCOC(=O)C1=C(C)/C(=C\c2[nH]c(C)c(C(=O)OCC)c2C)N=C1C

>  <assigned_category>
F

$$$$
>  <compound>
CCn1c(-c2cc3c([nH]c4ccccc43)c(-c3cccc(O)c3)n2)n[nH]c1=S

>  <assigned_category>
F

$$$$
>  <compound>
O=S(=O)(Nc1cc(Sc2cccc3cccnc23)c(O)c2ccccc12)c1ccccc1

>  <assigned_category>
F

$$$$
>  <compound>
CC(C)(C)c1cc(Cl)c(O)c(CNCCO)c1

>  <assigned_category>
F

$$$$
>  <compound>
COc1cc(C(=O)n2nc(N3CCOCC3)c3cc(-n4cccc4)ccc32)cc(OC)c1OC

>  <assigned_category>
F

$$$$
>  <compound>
CCCCC#Cc1c(I)n(C)c(=O)[nH]c1=O

>  <assigned_category>
F

$$$$
>  <compound>
C/C(=N\O)c1ccc(NC(=O)CSc2nnc(-c3cc(-c4ccc(S(N)(=O)=O)cc4)nc4ccccc34)n2-c2ccccc2)cc1

>  <assigned_category>
F

$$$$
>  <compound>
COc1cc2c(cc1OCCCCN1CCN(C(=S)SCCC(C#N)(c3ccccc3)c3ccccc3)CC1)N=C[C@@H]1CCCN1C2=O

>  <assigned_category>
T

$$$$
>  <compound>
COc1cnc2c(c1)C(=O)c1c-2n(CCCCl)c(=O)c2ccncc12

>  <assigned_category>
F

$$$$
>  <compound>
C=C(C)[C@@H]1CCC[C@]2(C(=O)O)CC[C@]3(C)[C@@H](CC[C@@H]4[C@@]5(C)C/C(=C/c6ccncc6)C(=O)C(C)(C)[C@@H]5CC[C@]43C)[C@@H]12

>  <assigned_category>
F

$$$$
>  <compound>
Cc1ccc(-c2nc(/C=C3/C(=O)Nc4ccc(F)cc43)c3ccccn23)cc1

>  <assigned_category>
F

$$$$
>  <compound>
C#CC#CC#CC#CC#CC#CC#CC#CCC1OC[C@H](COC(=O)O[C@@H](C(=O)O[C@H]2C[C@@]3(O)[C@@H](OC(=O)c4ccccc4)[C@@H]4[C@]5(OC(C)=O)CO[C@@H]5C[C@H](O)[C@@]4(C)C(=O)[C@H](OC(C)=O)C(=C2C)C3(C)C)[C@@H](NC(=O)c2ccccc2)c2ccccc2)O1 (stereo partly specified)

>  <assigned_category>
F

$$$$
>  <compound>
O=C(/C=C/c1ccccc1)c1ccc(Nc2nc(Nc3ccc(F)cc3)nc(Nc3ccc(Cl)cc3)n2)cc1

>  <assigned_category>
F

$$$$
>  <compound>
C#CCOc1cccc(-c2ncnc3cc(NC(=O)C=C)ccc23)c1

>  <assigned_category>
F

$$$$
>  <compound>
CO[C@H]1CC(=O)n2c3ccccc3c3c4c(c5c6ccccc6n1c5c32)C(=O)NC4=O

>  <assigned_category>
F

$$$$
>  <compound>
O=C(CN1CCCCCC1)Nc1nc2ccc(NCc3ccc(Cl)cc3)cc2s1

>  <assigned_category>
F

$$$$
>  <compound>
N#Cc1c(Nc2ccc(N3CCOCC3)cc2)nc(SCC(=O)c2ccc(Br)cc2)nc1-c1ccccc1

>  <assigned_category>
F

$$$$
>  <compound>
CC1=CC(c2ccco2)=C2C(N)=NNC2N1 (stereo unspecified)

>  <assigned_category>
F

$$$$
>  <compound>
O=C(N/N=C/c1cc(Cl)ccc1O)c1ccccc1Nc1ccnc(C(F)(F)F)c1

>  <assigned_category>
F

$$$$
>  <compound>
O=C(Nc1ccccc1N1CCCC1=O)c1oc2ccc(F)cc2c1-c1cnn(-c2ccccc2)c1

>  <assigned_category>
F

$$$$
>  <compound>
CC(=O)OC[C@]12CC[C@@H]([C@@H](C)c3nnc(-c4ccncc4)o3)[C@@H]1[C@H]1CC[C@@H]3[C@@]4(C)CC[C@H](OC(C)=O)C(C)(C)[C@@H]4CC[C@@]3(C)[C@]1(C)CC2

>  <assigned_category>
F

$$$$
>  <compound>
COc1ccc(C2=CN3CC=CC3CC2=O)cc1 (stereo unspecified)

>  <assigned_category>
F

$$$$
>  <compound>
C=C(C)[C@@H]1CCC[C@]2(C(=O)N3CCN(C)CC3)CC[C@]3(C)[C@@H](CC[C@@H]4[C@@]5(C)CC/C(=N\NC(=O)c6ccncc6)C(C)(C)[C@@H]5CC[C@]43C)[C@@H]12

>  <assigned_category>
F

$$$$
>  <compound>
Cc1ccc(C)c2c(C)c(C(=O)Nc3cccc(-n4cccn4)c3)oc12

>  <assigned_category>
F

$$$$
>  <compound>
Clc1ccccc1-c1cnn2cc(-c3ccccc3)cnc12

>  <assigned_category>
F

$$$$
>  <compound>
O=C(O)c1cn(C2CC2)c2cc(N3CCN(C(=O)Nc4nc(-c5ccc(Br)cc5)cs4)CC3)c(F)cc2c1=O

>  <assigned_category>
F

$$$$
>  <compound>
COc1ccc(/C=C/c2ccc3ccccc3n2)c(OC)c1

>  <assigned_category>
F

$$$$
>  <compound>
C=Cc1cnc(Nc2ccc(OC)cc2)nc1NCCCNC(=O)C1CCC1

>  <assigned_category>
F

$$$$
>  <compound>
CNC1=CC(=O)c2c(C(=O)OC)c(C)[n+]([O-])c(C)c2C1=O

>  <assigned_category>
F

$$$$
>  <compound>
N#Cc1c(-c2ccccc2)nc(SCC(O)CN2CCOCC2)nc1N1CCOCC1 (stereo unspecified)

>  <assigned_category>
F

$$$$
>  <compound>
CCCCNC(=O)Oc1ccc(/C(=C(/C)Cc2ccc(OC)cc2)c2ccc(OCCN3CCCCCC3)cc2)cc1

>  <assigned_category>
F

$$$$
>  <compound>
O=C(/C=C/c1ccc(Oc2ccc(Br)cc2)cc1)c1ccc(Br)cc1

>  <assigned_category>
F

$$$$
>  <compound>
CCN1C(=O)N(CC)C2Nn3c(s/c(=C\c4ccccc4Br)c3=O)=NC21 (stereo unspecified)

>  <assigned_category>
T

$$$$
